# Assay info: qHTS assay for identifying genotoxic compounds that show differential cytotoxicity against isogenic chicken DT40 cell lines with known DNA damage response pathways - wild type cell line (AID 743012); further: nearly all actives have a fitted effect of over 60% in size
# Test settings: DT40 wild type chicken cells viability, CellTiter-Glo, 40 h; series mostly up to 68.4 µM
Records with an inconclusive call do not appear. Active and inactive are the calls of the source. The call rests on the fitted dose curve; in most records, active means well fitted cell-killing curve with a large enough effect in the repeat runs; inconclusive means weak or mixed curves, or effect the other way; inactive means no such curve, though single readings can be large or run the other way.
Respond only with the outcome that fits, drawn from TRUE for active, FALSE for inactive

Task: Hi, sorry to bother you, what did the test record for Cc1ccccc1S ?
Output: TRUE

Task: Hi, sorry to bother you, what did the test record for CN1C(C(=O)Nc2ccccn2)=C(O)c2sccc2S1(=O)=O ?
Output: FALSE

---

# Assay info: qHTS assay to identify small molecule agonists of the AP-1 signaling pathway (AID 1159526)
# Test settings: ME-180 (cervical carcinoma) AP-1-bla reporter, beta-lactamase FRET ratio, 5 h; series mostly up to 76.8 µM
Results filed as inconclusive are left out. The source made the active and inactive calls. Calls come from the whole dose curve.
Measurement kind: outcome

// known answers, use as guide
# Smiles code, Test value
measured = [
    ("CC(=O)Nc1ccc(C)cc1C", "inactive"),
    ("Oc1cc2c(cc1O)[C@H]1c3ccc(O)c(O)c3OC[C@@]1(O)C2", "inactive"),
    ("C/C=C(/C(=C/C)c1ccc(O)cc1)c1ccc(O)cc1", "inactive"),
    ("CC1=C(CC=O)C(C)(C)CCC1", "inactive"),
]

Now for the molecule whose outcome we want.
The value of outcome measured for the molecule CCCCCCCCOc1ccc(C(=O)O)cc1 turned out to be inactive
